For each of the compounds below, state its logD.
Assay: n-Octanol-PBS buffer partition coefficient, log P of the compound at pH 7.4
Type: physicochemical
Give bare numbers.

Consider the worked cases shown below.
>  <Structure Smiles>
COCc1cccc(C#Cc2ccc(CCC(=O)O)cc2)c1

>  <logD>
1.43

$$$$
>  <Structure Smiles>
N#CCc1cccc(C#Cc2ccc(CCC(=O)O)cc2)c1

>  <logD>
0.98

$$$$
>  <Structure Smiles>
O=C(O)CCc1ccc(C#Cc2ccccc2OC(F)(F)F)cc1

>  <logD>
2.66

$$$$
>  <Structure Smiles>
O=C(O)CCc1ccc(C#Cc2cccc(OC(F)(F)F)c2)cc1

>  <logD>
2.83

$$$$
>  <Structure Smiles>
CS(=O)(=O)CCCCOc1cccc(C#Cc2ccc(CCC(=O)O)cc2)c1

>  <logD>
0.88

$$$$
>  <Structure Smiles>
Cc1ccc(C#N)cc1C#Cc1ccc(CCC(=O)O)cc1

>  <logD>
1.75

$$$$
>  <Structure Smiles>
Cc1ccc(C#Cc2ccc(CCC(=O)O)cc2)cc1

>  <logD>
2.13

$$$$
>  <Structure Smiles>
COCc1ccccc1C#Cc1ccc(CCC(=O)O)cc1

>  <logD>
1.29

$$$$

// below: logD requested for another compound
Form field: reported logD of N#CCc1ccccc1C#Cc1ccc(CCC(=O)O)cc1
1.28
